# Tested on: R275C/beta2Delta
# Assay: BK channel mutant inhibitors and activators – cell-based, U2OS BacMam, thallium flux, beta subunits, selectivity assay, profiling panel (AID 1259406);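 also: initial slope of Thallos dye fluorescence rise after thallium is added; log ratio against the mean of 0.3% DMSO vehicle wells on the same plate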
# Test Parameters: U2OS BacMam BK variants, at 30 µM
For each record, write down the corresponding log fold change Tl+ flux.
Numbers only.

Check out these entries, answers already filled in.
                                   molecule     target_entity      val
0                  Clc1ccc2nsnc2c1NC1=NCCN1  R275C/beta2Delta   -0.063
1              CC(C)(C(=O)c1cccnc1)c1cccnc1  R275C/beta2Delta  -0.0241
2  CC(C)(C)NC(=O)[C@H]1CC[C@H]2[C@@H]3CC[C@H]4NC(=O)C=C[C@]4(C)[C@H]3CC[C@]12C  R275C/beta2Delta   0.0533
3  COC(=O)C1=C(C)NC(C)=C(C(=O)OCC(C)C)C1c1ccccc1[N+](=O)[O-] (stereo not given)  R275C/beta2Delta    0.206
4  CN(CCCN1c2ccccc2CCc2ccccc21)CC(=O)c1ccc(Cl)cc1  R275C/beta2Delta   0.0142
5  CCN1CCN(c2cc3c(cc2F)c(=O)c(C(=O)O)cn3C2CC2)CC1  R275C/beta2Delta   0.0322
6  CC(C)NCC(O)COc1ccc(COCCOC(C)C)cc1 (stereo not given)  R275C/beta2Delta  -0.0507
7  CC(N)C12CC3CC(CC(C3)C1)C2 (stereo not given)  R275C/beta2Delta   0.0568
8  CCN1CCC[C@H]1CNC(=O)c1cc(S(N)(=O)=O)ccc1OC  R275C/beta2Delta    -0.02

Proceeding to the next molecule to report its log fold change Tl+ flux.
Quick note, log fold change Tl+ flux for CN(C)CC/C=C1/c2ccccc2COc2ccc(CC(=O)O)cc21 landed at 0.00503
